All values here come from patent US11266739B2.

ASSAYED_SYSTEM: HLA-B*08:01 (Homo sapiens, UniProt P01889, A93T/A95T/D138N/E176V/E187T/K202T/Q94N/R180D/S35A/V36M/Y33D/Y91F)
PROTOCOL_SUMMARY: REVEAL Epitope Discovery System in vitro MHC-peptide binding assay, HLA-B*08:01
RUN_CONDITIONS: binding normalized to positive control peptide set at 100%, score >50 considered good or high affinity binding
PROPERTY_LABEL: In Vitro Score (B*08:01)

Reference set, count: 6
* IIFWVKRGA [junction 9-mer, peptide 4, mutation R32A] | 0.90
* WVKRGSKKL [junction 9-mer, peptide 7, mutation R32S] | 56.10
* WVKRGHKKL [junction 9-mer, peptide 7, mutation R32H] | 47.60
* IIFWVKRGL [junction 9-mer, peptide 4, mutation R32L] | 1.70
* IFWVKRGLK [junction 9-mer, peptide 5, mutation R32L] | 58.30
* WVQRGNKKL [junction 9-mer, peptide 7, mutation K29Q/R32N] | 32.00

[P] IFWVHRGRK [junction 9-mer, peptide 5, mutation K29H]
[Q] IFWVKRGSK [junction 9-mer, peptide 5, mutation R32S]
[R] FIIFWVHRG [junction 9-mer, peptide 3, mutation K29H]
[S] IFWVKRGHK [junction 9-mer, peptide 5, mutation R32H]
[T] WVARGRKKL [junction 9-mer, peptide 7, mutation K29A]
Ascending by In Vitro Score (B*08:01), please. Give me the labels in the order the question wants. P, R, Q, S, T
(P: 0.10, R: 0.20, Q: 1.20, S: 3.20, T: 32.40)

* * *

ASSAYED_SYSTEM: HLA-A*11:01 (Homo sapiens, UniProt P04439, A114D/D185E/E176A/F33Y/L180Q/S129P/T187R)
PROTOCOL_SUMMARY: REVEAL Epitope Discovery System in vitro MHC-peptide binding assay, HLA-A*11:01
RUN_CONDITIONS: binding normalized to positive control peptide set at 100%, score >50 considered good or high affinity binding
PROPERTY_LABEL: In Vitro Score (A*11:01)

Reference set, count: 5
* FIIFWVHRG [junction 9-mer, peptide 3, mutation K29H] | 0.90
* IIFWVLRGR [junction 9-mer, peptide 4, mutation K29L] | 35.20
* IFWVKRGLK [junction 9-mer, peptide 5, mutation R32L] | 61.10
* AFIIFWVSR [junction 9-mer, peptide 2, mutation K29S] | 54.00
* VAFIIFWVS [junction 9-mer, peptide 1, mutation K29S] | 25.10

[1] WVKRGSKKL [junction 9-mer, peptide 7, mutation R32S]
[2] IIFWVKRGS [junction 9-mer, peptide 4, mutation R32S]
So which one has the bigger In Vitro Score (A*11:01) here, 1 or 2 ? Respond using the label that marks the chosen record. 2
(2: 100.00, 1: 11.80)

[1] VAFIIFWVR [junction 9-mer, peptide 1, mutation K29R]
[2] IFWVQRGRK [junction 9-mer, peptide 5, mutation K29Q]
Dear colleague, could you let me know whether 1 or 2 has the lower recorded In Vitro Score (A*11:01)? Thanks. Respond using the label that marks the chosen record. 1

* * *

ASSAYED_SYSTEM: HLA-B*08:01 (Homo sapiens, UniProt P01889, A93T/A95T/D138N/E176V/E187T/K202T/Q94N/R180D/S35A/V36M/Y33D/Y91F)
PROTOCOL_SUMMARY: REVEAL Epitope Discovery System in vitro MHC-peptide binding assay, HLA-B*08:01
RUN_CONDITIONS: binding normalized to positive control peptide set at 100%, score >50 considered good or high affinity binding
PROPERTY_LABEL: In Vitro Score (B*08:01)

Reference set, count: 5
- VAFIIFWVS [junction 9-mer, peptide 1, mutation K29S]: 0.10
- IIFWVKRGR: 0.00
- IFWVARGRK [junction 9-mer, peptide 5, mutation K29A]: 0.00
- IIFWVQRGR [junction 9-mer, peptide 4, mutation K29Q]: 0.10
- IIFWVKRGN [junction 9-mer, peptide 4, mutation R32N]: 0.90

[A] IIFWVSRGR [junction 9-mer, peptide 4, mutation K29S]
[B] VAFIIFWVR [junction 9-mer, peptide 1, mutation K29R]
[C] WVKRGAKKL [junction 9-mer, peptide 7, mutation R32A]
[D] IIFWVARGR [junction 9-mer, peptide 4, mutation K29A]
[E] IFWVQRGAK [junction 9-mer, peptide 5, mutation K29Q/R32A]
# rank_down: sort by In Vitro Score (B*08:01), max first Give me the labels in the order the question wants. C, D, E, B, A

[P] IIFWVQRGA [junction 9-mer, peptide 4, mutation K29Q/R32A]
[Q] IFWVQRGRK [junction 9-mer, peptide 5, mutation K29Q]
So which one has the bigger In Vitro Score (B*08:01) here, P or Q ? Respond using the label that marks the chosen record. P
(P: 0.20, Q: 0.00)
